Listed below: Decomposition efficiency of daidzin family in roasted soy flour values for each entry.
Tested on: Crude diglycosidase
Assay: Examination of temperature in the conversion into isoflavone aglycons by diglycosidase using soybean materials
Format: biochemical, Penicillium multicolor IAM7153
Set-up: concentration or dose not given beside the values
Settings: 65 °C; heat treatment of enzyme: no; 1 h
Measured parameter: Decomposition efficiency of daidzin family in roasted soy flour (%)

- Molecule: "CC(=O)OC[C@H]1O[C@@H](Oc2ccc3c(=O)c(-c4ccc(O)cc4)coc3c2)[C@H](O)[C@@H](O)[C@@H]1O"
  Measurement target: "Crude diglycosidase"
  Scale unit: "%"
  Numeric value: 43.7
- Molecule: "O=c1c(-c2ccc(O)cc2)coc2cc(O)ccc12"
  Measurement target: "Crude diglycosidase"
  Scale unit: "%"
  Numeric value: 56.3

----------
Tested on: Crude diglycosidase
Test: Examination of pH in the conversion into isoflavone aglycons by diglycosidase using soybean materials
Assay type: biochemical, Penicillium multicolor IAM7153
Conditions: pH11.6, heat treatment of enzyme no, reaction time 0 h, 55° C.
Listed below: Decomposition efficiency of glycitin family in soymilk values for each entry.
Measured parameter: Decomposition efficiency of glycitin family in soymilk

- Compound: "COc1cc2c(=O)c(-c3ccc(O)cc3)coc2cc1O[C@@H]1O[C@H](CO)[C@@H](O)[C@H](O)[C@H]1O [glycitin]"
  Measurement target: "Crude diglycosidase"
  Numeric value: 54.3
- Compound: "COc1cc2c(=O)c(-c3ccc(O)cc3)coc2cc1O [glycitein]"
  Measurement target: "Crude diglycosidase"
  Numeric value: 6.2
- Compound: "COc1cc2c(=O)c(-c3ccc(O)cc3)coc2cc1O[C@@H]1O[C@H](COC(=O)CC(=O)O)[C@@H](O)[C@H](O)[C@H]1O [malonylglycitin, 6″-O-malonylglycitin]"
  Measurement target: "Crude diglycosidase"
  Numeric value: 39.4

----------
Tested on: Crude diglycosidase
Experiment: Examination of substrate concentration in the conversion into isoflavone aglycons by diglycosidase using soybean materials
Format: biochemical, Penicillium multicolor IAM7153
Settings: substrate concentration 5%, heat treatment of enzyme no, reaction time 3 h
Measured parameter: Decomposition efficiency of genistin family in defatted soybean

- Molecule: "O=C(O)CC(=O)OC[C@H]1O[C@@H](Oc2cc(O)c3c(=O)c(-c4ccc(O)cc4)coc3c2)[C@H](O)[C@@H](O)[C@@H]1O"
  Numeric value: 29.6
- Molecule: "CC(=O)OC[C@H]1O[C@@H](Oc2cc(O)c3c(=O)c(-c4ccc(O)cc4)coc3c2)[C@H](O)[C@@H](O)[C@@H]1O"
  Numeric value: 0.5
- Molecule: "O=c1c(-c2ccc(O)cc2)coc2cc(O)cc(O)c12"
  Numeric value: 69.9

----------
Test system: Crude diglycosidase
Assay: Examination of temperature in the conversion into isoflavone aglycons by diglycosidase using soybean materials
Assay type: biochemical, Penicillium multicolor IAM7153
Conditions: 45° C., heat treatment of enzyme no, reaction time 3 h
Listed below: Decomposition efficiency of genistin family in defatted soybean values for each entry.
Measured parameter: Decomposition efficiency of genistin family in defatted soybean (%)

- Molecule: "O=C(O)CC(=O)OC[C@H]1O[C@@H](Oc2cc(O)c3c(=O)c(-c4ccc(O)cc4)coc3c2)[C@H](O)[C@@H](O)[C@@H]1O"
  Scale unit: "%"
  Numeric value: 46.8
- Molecule: "O=c1c(-c2ccc(O)cc2)coc2cc(O[C@@H]3O[C@H](CO)[C@@H](O)[C@H](O)[C@H]3O)cc(O)c12"
  Scale unit: "%"
  Numeric value: 1.0
- Molecule: "O=c1c(-c2ccc(O)cc2)coc2cc(O)cc(O)c12"
  Scale unit: "%"
  Numeric value: 51.8
- Molecule: "CC(=O)OC[C@H]1O[C@@H](Oc2cc(O)c3c(=O)c(-c4ccc(O)cc4)coc3c2)[C@H](O)[C@@H](O)[C@@H]1O"
  Scale unit: "%"
  Numeric value: 0.3
